MEASURE_NAME: melting point

NC(=O)N(CCCl)C(c1ccccc1)P(=O)(O)O (stereo unspecified) :: 195 °C
COc1nc(N)ccc1C(=O)CCC1CCN(CC2CCCCC2)CC1 :: 73.2 °C
CC(C)(C)OC(=O)NC(=O)C(c1ccccc1)c1ccccc1 :: 160 to 162 °C
O=C(Nc1nc2ccc(Sc3cnc4ncc(NCc5ccccc5)cn34)cc2s1)C1CC1 :: > 260 °C

[ask] Could you tell me which melting point is on file for CC(C)c1cccc(C(C)C)c1NC(=O)NC(Cc1ccccc1)c1ccccc1 (stereo unspecified) ?
[reply] 219 to 221 °C

[ask] Could you tell me which melting point is on file for "Cc1ccc2nc(-c3ccc4c(c3)sc(=N)n4C)sc2c1" ?
[reply] 146 to 148 °C

[ask] Could you tell me which melting point is on file for "COc1ccc(C(=O)O)c(C(=O)O)c1" ?
[reply] 168 to 174 °C

[ask] Could you tell me which melting point is on file for "O=C(O)COc1c(-c2cccc(Cl)c2)cc(C(=O)NCCCC2CCCC2)cc1-c1cccc(C(F)(F)F)c1" ?
[reply] 173 to 175 °C

[ask] Could you tell me which melting point is on file for "CCCCCCCCCCCCCCCCCCOc1cc(OCCCCCc2cccc(O)c2O)cc(N(CC(=O)O)CC(=O)O)c1" ?
[reply] 129 to 131 °C

###

melting point listing for selected compounds.

Cc1ncc(C(=O)N2CCCC2)s1 :: 71 to 72 °C
COc1cc(-c2cc3c(Cl)ccnc3[nH]2)cc(OC)c1OC :: 188 to 190 °C

In the following, a different compound is considered.
[ask] Could you tell me which melting point is on file for "C=CCNc1nc(N2CCCCC2)c2cc([N+](=O)[O-])ccc2n1" ?
[reply] 123 to 124 °C

###

melting point listing for selected compounds.

CCC1c2ccc(F)n2-c2ccc(F)cc2N1S(=O)(=O)c1ccc(O)c(C)c1 (stereo not drawn) :: 149 to 151 °C

[ask] Could you tell me which melting point is on file for "O=C1c2cc(F)ccc2C(=O)c2c1nc1ccccn21" ?
[reply] > 260 °C

[ask] Could you tell me which melting point is on file for "CC(C)c1c(-c2ccccc2)[nH]c2nccnc12" ?
[reply] 216 to 218 °C

[ask] Could you tell me which melting point is on file for "O=C1c2c(Cl)cccc2S(=O)(=O)N1CCl" ?
[reply] 135 to 136 °C

###

melting point listing for selected compounds.

Examples from the recorded data:
CC(C)=Cn1cnc2c(N)nc3ccccc3c21 :: 284 to 289 °C
COc1ccccc1N1CCN(CC(O)COc2ccc(OCc3ccccc3)c3ccccc23)CC1 (configuration not stated) :: 143 to 145 °C
CC(=O)NCCC(=O)NCCNC(=O)OCc1ccccc1 :: 180 to 182 °C

[ask] Could you tell me which melting point is on file for "Nc1ccc2c(=O)n(Cc3ccccc3)c(=O)n(-c3ccccc3)c2n1" ?
[reply] 261 to 262 °C

[ask] Could you tell me which melting point is on file for "Cc1nc(-c2cccc(-c3nc4sccn4c3-c3ccnc(N[C@@H]4CCCNC4)n3)c2)no1" ?
[reply] 203 to 207 °C

[ask] Could you tell me which melting point is on file for "OCc1nc2ccc(Cl)nc2[nH]1" ?
[reply] 224 to 226 °C

FYI, the data here is from a melting point compilation (Tetko et al.; mined from patent text by program, amines drawn as free bases though some values may be those of a salt).
